FYI, the data here is from the supplement of paper PMC12645437.

- experimental.system: T1, CRBN, Q96SW2;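 note: pooled lentiviral library of zinc finger degron-EGFP fusions in mCherry-positive Jurkat cells, FACS-sorted after compound exposure, with degron abundance counted by next-generation sequencing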
- T1 chain: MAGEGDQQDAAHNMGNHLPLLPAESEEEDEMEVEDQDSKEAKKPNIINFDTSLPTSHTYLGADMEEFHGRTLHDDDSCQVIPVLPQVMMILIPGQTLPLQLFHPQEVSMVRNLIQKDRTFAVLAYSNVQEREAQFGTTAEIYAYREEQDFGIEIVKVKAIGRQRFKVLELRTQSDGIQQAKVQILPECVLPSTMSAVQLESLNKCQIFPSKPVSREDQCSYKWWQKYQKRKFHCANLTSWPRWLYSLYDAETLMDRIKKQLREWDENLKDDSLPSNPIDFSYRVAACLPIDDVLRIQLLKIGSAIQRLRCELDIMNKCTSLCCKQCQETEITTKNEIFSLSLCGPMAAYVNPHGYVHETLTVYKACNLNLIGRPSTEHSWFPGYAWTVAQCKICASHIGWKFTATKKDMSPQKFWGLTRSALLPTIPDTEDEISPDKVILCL
- test.summary: log2 fold change of degron read counts, EGFP-low vs EGFP+ sorted cells (limma voom), compound-induced degradation; higher = more compound-induced degradation of the degron-EGFP fusion; degrons are variants of IKZF1/3 zinc finger 2; compound dose not given here
- run.conditions: Jurkat; 18 h; compound: compound 19 (5-tert-butyl-thalidomide)
In all, about 8,300 sequences were measured (“log2 fold change of degron read counts, EGFP-low vs EGFP+ sorted cells (limma voom), compound-induced degradation”: median about -1.1, highest 2% from about 3.2 on). This is one part of a sample in which the highest values are shown more often than they occur.
Categorize each record by its log2 fold change of degron read counts using one: < -2; two: ≥ -2 and < -0.2; three: ≥ -0.2

sequence.string	assigned.category
FSCPICGAIFTQKGNLLRHIKL [46F_47S_49P_50I_52G_53A_54I_55F_67L_, Q9UKT9]	three
FTCDICGARFTQKGNLLRHIKL [46F_47T_49D_50I_52G_53A_54R_55F_67L_, Q9UKT9]	three

input: Record FKCPICGAIFTQKGNLLRHIKL [46F_47K_49P_50I_52G_53A_54I_55F_67L_, Q9UKT9] — which class?
output: one

input: Determine which band this sequence sits in: FTCPICGRIFTQKGNLLRHIKL [46F_47T_49P_50I_52G_53R_54I_55F_67L_, Q9UKT9]
output: two
